biological target: Human TRPC6 (Homo sapiens); construct: expressed in transfected cells; test: Evaluation of TRPC6 channel inhibitory activity (1), FLIPR Calcium 5 Assay Kit, OAG stimulation (Compound Nos. 1-1293); format: cell-based; details: Human TRPC6 stably-expressing cells, OAG 30 μM, FLIPR Calcium 5 Assay Kit; read-out: Inhibitory activity (pIC50 class) (converted)
Please respond with reported IC50 for every item in the list.

Entry `Cc1nn(CC(F)F)c(C)c1Oc1cc(C#N)ccc1-c1ncc(CCN)cn1` has what IC50?
> 1000 nM

Param item: `Cn1nc(-c2ccccc2)cc1Oc1cc(C#N)ncc1-c1ccc(CCN)cn1`
10 to 1000 nM

Param item: `Cc1ccnc(-c2cc(Oc3cc(C#N)ccc3-c3ncc(CN)cn3)n(C)n2)c1`
< 10 nM

Param item: `Cc1nc(Oc2cc(C#N)ccc2-c2ncc(CCN)cn2)cc(O[C@@H]2CCOC2)n1`
> 1000 nM

###

Please respond with reported IC50 for every item in the list.
Molecular target: Human TRPC6 (Homo sapiens, UniProt Q9Y210)
Construct: expressed in transfected cells
Sequence (Q9Y210 1-931): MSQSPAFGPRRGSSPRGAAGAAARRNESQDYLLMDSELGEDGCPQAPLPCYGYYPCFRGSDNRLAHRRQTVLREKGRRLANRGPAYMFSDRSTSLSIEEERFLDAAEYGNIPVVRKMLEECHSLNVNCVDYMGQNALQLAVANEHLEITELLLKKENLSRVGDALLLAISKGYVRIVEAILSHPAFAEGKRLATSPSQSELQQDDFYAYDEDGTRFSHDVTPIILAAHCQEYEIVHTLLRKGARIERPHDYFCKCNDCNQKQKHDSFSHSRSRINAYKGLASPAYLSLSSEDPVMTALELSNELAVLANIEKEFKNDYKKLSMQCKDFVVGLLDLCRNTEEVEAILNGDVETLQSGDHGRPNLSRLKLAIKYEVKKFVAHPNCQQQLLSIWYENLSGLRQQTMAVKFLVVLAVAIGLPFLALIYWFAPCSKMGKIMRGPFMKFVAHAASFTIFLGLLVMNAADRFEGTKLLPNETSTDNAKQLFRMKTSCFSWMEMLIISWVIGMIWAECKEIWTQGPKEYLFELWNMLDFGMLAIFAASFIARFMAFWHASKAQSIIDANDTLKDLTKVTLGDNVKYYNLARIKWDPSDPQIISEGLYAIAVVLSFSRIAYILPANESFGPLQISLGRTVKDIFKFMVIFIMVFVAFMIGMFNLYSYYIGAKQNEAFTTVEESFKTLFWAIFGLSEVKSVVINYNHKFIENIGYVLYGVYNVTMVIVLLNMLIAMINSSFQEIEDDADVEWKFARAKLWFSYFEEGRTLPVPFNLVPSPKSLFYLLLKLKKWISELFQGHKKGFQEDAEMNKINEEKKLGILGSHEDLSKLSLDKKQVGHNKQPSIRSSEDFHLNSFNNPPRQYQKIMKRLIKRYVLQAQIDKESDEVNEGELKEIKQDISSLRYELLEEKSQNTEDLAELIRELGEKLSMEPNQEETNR
Test: Evaluation of TRPC6 channel inhibitory activity (1), FLIPR Calcium 5 Assay Kit, OAG stimulation (Compound Nos. 1-1293)
Assay type: cell-based
Details: Human TRPC6 stably-expressing cells, OAG 30 μM, FLIPR Calcium 5 Assay Kit; read-out: Inhibitory activity (pIC50 class) (converted)

Entry Cn1nc(C(C)(C)C)cc1C(O)c1cc(C#N)ccc1-c1ccc(CN)cn1 (stereo not shown) has what IC50?
< 10 nM

Param item: `Cc1nc(Oc2cc(C#N)ccc2-c2ccc(CCN)cn2)cc(N2CCOCC2)n1`
10 to 1000 nM

Param item: `Cc1c(Oc2cc(F)ccc2-c2ncc(CCN)cn2)cnn1-c1ccccn1`
> 1000 nM

Param item: `N#Cc1ccc(-c2ccc(CCN)cc2)c(Oc2cnnc(-c3ccccc3C(N)=O)c2)c1`
> 1000 nM

Param item: `N#Cc1ccc(-c2ccc(CCN)cn2)c(Sc2cnnc(N3CCCC3)c2)c1`
< 10 nM

Param item: `CCN(CC)c1cc(C(=O)c2cc(C#N)ccc2-c2ncc(CCN)cn2)n(C)n1`
< 10 nM

Param item: `Cc1nc(C(=O)c2cc(C#N)ccc2-c2ncc(CN)cn2)cc(N2CCOCC2)n1`
> 1000 nM

Param item: `N#Cc1ccc(-c2ncc(CN)cn2)c(Cn2ccnc2-c2ccccc2)c1`
> 1000 nM

Param item: `Cc1nc(Oc2cc(C#N)ccc2-c2ncc(CCN)cn2)cc(N2CC(F)C2)n1`
10 to 1000 nM

Param item: `Cn1nc(-c2ccccn2)cc1Oc1cc(C#N)ccc1-c1ccc(CN)n2ccnc12`
< 10 nM

Param item: Cn1nc(C2CCC2)cc1Oc1cc(C#N)ccc1-c1ncc(C(O)CN)s1 (stereo not shown)
< 10 nM

Param item: `Cc1nn(-c2ccccn2)cc1Oc1cc(C#N)ccc1-c1ncc(CN)cn1`
< 10 nM

Param item: Cc1nc(Oc2cc(C#N)ccc2-n2cnc(C(O)CN)c2)cc(N2CCOCC2)n1 (stereo not shown)
> 1000 nM

Param item: `Cc1cc(Oc2cc(C#N)ccc2-c2ncc(C3(N)CC3)cn2)cc(N2CCOCC2)n1`
> 1000 nM

Param item: `N#Cc1ccc(-c2ncc(CN)cn2)c(Oc2cc(N3CCOCC3)cnn2)c1`
> 1000 nM

Param item: `Cn1nc(-c2ccccn2)cc1Oc1cc(C#N)ccc1-c1ccc(C(C)(C)N)cn1`
10 to 1000 nM

Param item: COC(c1cc(C#N)ccc1-c1ncc(CCN)cn1)c1cc(C(C)(C)C)nn1C (stereo not shown)
10 to 1000 nM

Param item: `Cn1nc(N(CCF)CCF)cc1Oc1cc(C#N)ccc1-c1ncc(CCN)cn1`
< 10 nM

Param item: `Cn1nc(N2CCOCC2)cc1C(=O)c1cc(C#N)ccc1-c1ccc(CN)cn1`
< 10 nM

Param item: `N#Cc1ccc(-c2ncc(CN)cn2)c(Oc2cc(N3CCCC3)ncc2C#N)c1`
> 1000 nM

Param item: `Cc1nc(Oc2cc(C#N)ccc2-c2ncc(CN)cn2)cc(N2CCOC(C)(C)C2)n1`
10 to 1000 nM

Param item: `N#Cc1ccc(-c2ncc(CCN)cn2)c(Oc2nnc(N3CCCCC3)s2)c1`
< 10 nM

Param item: `C[C@H](N)c1cnc(-c2ccc(C#N)cc2Oc2cc(-c3ccccn3)nn2C)nc1`
< 10 nM

Param item: `Cn1nc(C2CC2)cc1Oc1cc(C#N)ccc1-c1ccc(N)cn1`
> 1000 nM

Param item: `NCCc1cnc(-c2ccc(F)cc2C(=O)c2cnn(CC3CC3)c2)nc1`
10 to 1000 nM

Param item: `CCc1cc(Oc2cc(C#N)ccc2-c2ccc(OCCN)cn2)n(C)n1`
10 to 1000 nM

Param item: `N#Cc1ccc(-c2ncc(CN)cn2)c(Oc2cnnc(-c3ccccn3)c2)c1`
> 1000 nM

Param item: `Cc1cc(Oc2cc(C#N)ccc2-c2ccnc(OCCN)c2)cc(N2CCOCC2)n1`
10 to 1000 nM

Param item: `Cn1nc(-c2ccc(F)cc2)cc1Oc1cc(C#N)ccc1-c1ccc(CCN)cc1`
10 to 1000 nM

Param item: CC(N)c1ccc(-c2ccc(C#N)cc2Oc2cc(C3CC3)nn2C)nc1 (stereo not shown)
< 10 nM

Param item: Cc1nc(Oc2cc(C#N)ccc2-c2ccc(C(CN)c3ccsc3)cc2)cc(N2CCOCC2)n1 (stereo not shown)
10 to 1000 nM

Param item: `Cn1nc(C2CCOCC2)cc1Oc1cc(F)ccc1-c1ccc(CCN)cn1`
< 10 nM

Param item: `Cc1nc(Oc2cc(C#N)ccc2-c2cnn(C3CCNCC3)c2)cc(N2CCOCC2)n1`
> 1000 nM

Param item: `N#Cc1ccc(-n2cc(CCN)cn2)c(Sc2cnnc(N3CCCC3)c2)c1`
10 to 1000 nM
